Tested on: Human recombinant GST-PI3K
Experiment: PI3K induced-lipid phosphorylation, neomycin-SPA scintillation proximity assay
Type: biochemical
Conditions: Human recombinant GST-PI3K, SPA
Doc: threshold 100 nM (exclusive). Items with IC50 beneath it return 1 (yes); others return 0 (no).

Query string: Dear reviewer, please state whether `CCCS(=O)(=O)Nc1nc2ccccc2nc1Nc1cc(OC)ccc1CCO` has IC50 strictly beneath 100 nM.
Result string: 1 (yes)

Query string: Repeat for the following compound: `COc1ccc(CCCO)c(Nc2nc3ccccc3nc2NS(=O)(=O)c2c(C)noc2C)c1`
Result string: 0 (no)

Query string: Repeat for the following compound: `COc1ccc(CCS(C)(=O)=O)c(Nc2nc3ccccc3nc2NS(=O)(=O)c2cn(C)cn2)c1`
Result string: 1 (yes)

Query string: Repeat for the following compound: `COc1ccc(CCCO)c(Nc2nc3ccccc3nc2NS(=O)(=O)c2cccc(NC(=O)COCc3ccccc3)c2)c1`
Result string: 0 (no)

Query string: Repeat for the following compound: `COc1ccc(CCCN(C)C)c(Nc2nc3ccccc3nc2NS(=O)(=O)c2cn(C)cn2)c1`
Result string: 1 (yes)

Query string: Repeat for the following compound: `COc1ccc(CC2CCOCC2)c(Nc2nc3ccccc3nc2NS(=O)(=O)c2cccnc2)c1`
Result string: 1 (yes)

Query string: Repeat for the following compound: `COc1ccc(CN2CCN(C)CC2)c(Nc2nc3ccccc3nc2NS(=O)(=O)c2cccnc2)c1`
Result string: 1 (yes)

Query string: Repeat for the following compound: `COc1ccc(CC2CCN(C(C)=O)CC2)c(Nc2nc3ccccc3nc2NS(C)(=O)=O)c1`
Result string: 0 (no)

---

Test system: Human recombinant GST-PI3K
Test: PI3K induced-lipid phosphorylation, neomycin-SPA scintillation proximity assay
Type: biochemical
Conditions: Human recombinant GST-PI3K, SPA
OUTCOME_MEASURE: pIC50
On this scale, pIC50 is minus log10 of a concentration expressed in M (mol/L).

Query string: Any idea what pIC50 was measured for COc1ccc(CCO)c(Nc2nc3ccccc3nc2NS(=O)(=O)c2ccc(F)cc2)c1 [Example 36] ?
Result string: 7.64

Query string: Repeat for the following compound: COC(=O)CCc1ccc(S(=O)(=O)Nc2nc3ccccc3nc2Nc2cc(OC)ccc2CCO)cc1 [Example 41]
Result string: 7.15

Query string: Repeat for the following compound: COc1ccc(CCO)c(Nc2nc3ccccc3nc2NS(=O)(=O)c2cn(C)cn2)c1 [Example 35]
Result string: 7.32

Query string: Repeat for the following compound: COc1ccc(CC2C[C@H]3CC[C@@H](C2)N3C)c(Nc2nc3ccccc3nc2NS(=O)(=O)c2cn(C)cn2)c1 (some centres unmarked) [Example 15]
Result string: 6.96

Query string: Repeat for the following compound: COc1ccc(CC2CCN(C(C)=O)CC2)c(Nc2nc3ccccc3nc2NS(=O)(=O)c2cn(C)cn2)c1 [Example 16]
Result string: 7.05

---

Give measured IC50 for each item. Keep answers brief.
Test system: Human recombinant GST-PI3K
Assay: PI3K induced-lipid phosphorylation, neomycin-SPA scintillation proximity assay
Format: biochemical
Details: Human recombinant GST-PI3K, SPA
Write the number in nM without appending the unit.

Query string: Give IC50 (Human recombinant GST-PI3K) of the following compound: `COc1cc(CN2CCN(C)CC2)cc(Nc2nc3ccccc3nc2NS(=O)(=O)c2cccnc2)c1`
Result string: 970

Query string: Repeat for the following compound: `COCCc1ccc(OC)cc1Nc1nc2ccccc2nc1NS(=O)(=O)C1CCNCC1`
Result string: 98

Query string: Repeat for the following compound: `COc1ccc(CC2CCN(C(=O)CN(C)C)CC2)c(Nc2nc3ccccc3nc2NS(=O)(=O)c2cn(C)cn2)c1`
Result string: 100

Query string: Repeat for the following compound: `COc1ccc(CCO)c(Nc2nc3ccccc3nc2NS(=O)(=O)c2ccc(CN(C)C)cc2)c1`
Result string: 26

Query string: Repeat for the following compound: `COc1ccc(CCO)c(Nc2nc3ccccc3nc2NS(=O)(=O)C2CCCCC2)c1`
Result string: 57
